Hello, the source for this data is patent US20080108645A1, in case you need it.

# study target: Adrenergic α2B Receptor (Homo sapiens)
# Construct: expressed in transfected cells; host or cells: CHO-K1 cells
# Sequence (P18089 whole entry): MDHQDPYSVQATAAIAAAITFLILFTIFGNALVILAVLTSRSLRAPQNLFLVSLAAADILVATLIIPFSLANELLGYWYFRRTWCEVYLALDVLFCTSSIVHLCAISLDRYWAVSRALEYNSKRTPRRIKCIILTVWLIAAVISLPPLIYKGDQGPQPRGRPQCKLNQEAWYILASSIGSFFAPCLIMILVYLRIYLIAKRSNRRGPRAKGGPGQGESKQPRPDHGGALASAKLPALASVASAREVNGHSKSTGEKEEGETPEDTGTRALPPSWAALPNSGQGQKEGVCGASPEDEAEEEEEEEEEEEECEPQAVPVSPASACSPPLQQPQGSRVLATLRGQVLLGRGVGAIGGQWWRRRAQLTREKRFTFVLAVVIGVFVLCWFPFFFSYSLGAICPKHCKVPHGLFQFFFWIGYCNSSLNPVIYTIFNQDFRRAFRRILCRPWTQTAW
# assay explanation: Adrenergic α2B receptor radioligand binding
# settings: 10 μM; 2.5 nM [3H] Rauwolscine
experimental endpoint: Percentage Inhibition of Specific Binding, α2B Receptor (%)
Kindly provide the numeric value in % only, without the unit symbol.

For record COc1cc2c(cc1OC)[C@H]1C[C@H](O)[C@@H](CC(C)C)CN1CC2 (single isomer, unassigned) [Isomer B, 3,11b-cis-dihydrotetrabenazine] the listed Percentage Inhibition of Specific Binding, α2B Receptor is 14

For record COc1cc2c(cc1OC)[C@H]1C[C@@H](O)[C@@H](CC(C)C)CN1CC2 (single isomer, unassigned) [Isomer C, 3,11b-cis-dihydrotetrabenazine] the listed Percentage Inhibition of Specific Binding, α2B Receptor is −7

For record COc1cc2c(cc1OC)[C@H]1C[C@@H](O)[C@@H](CC(C)C)CN1CC2 (single isomer, unassigned) [Isomer D, 3,11b-cis-dihydrotetrabenazine] the listed Percentage Inhibition of Specific Binding, α2B Receptor is 50

For record COc1cc2c(cc1OC)[C@H]1C[C@H](O)[C@@H](CC(C)C)CN1CC2 (single isomer, unassigned) [Isomer A, 3,11b-cis-dihydrotetrabenazine] the listed Percentage Inhibition of Specific Binding, α2B Receptor is 44

---

# study target: Serotonin Transporter (SERT) (Homo sapiens, UniProt P31645)
# Sequence (P31645 whole entry): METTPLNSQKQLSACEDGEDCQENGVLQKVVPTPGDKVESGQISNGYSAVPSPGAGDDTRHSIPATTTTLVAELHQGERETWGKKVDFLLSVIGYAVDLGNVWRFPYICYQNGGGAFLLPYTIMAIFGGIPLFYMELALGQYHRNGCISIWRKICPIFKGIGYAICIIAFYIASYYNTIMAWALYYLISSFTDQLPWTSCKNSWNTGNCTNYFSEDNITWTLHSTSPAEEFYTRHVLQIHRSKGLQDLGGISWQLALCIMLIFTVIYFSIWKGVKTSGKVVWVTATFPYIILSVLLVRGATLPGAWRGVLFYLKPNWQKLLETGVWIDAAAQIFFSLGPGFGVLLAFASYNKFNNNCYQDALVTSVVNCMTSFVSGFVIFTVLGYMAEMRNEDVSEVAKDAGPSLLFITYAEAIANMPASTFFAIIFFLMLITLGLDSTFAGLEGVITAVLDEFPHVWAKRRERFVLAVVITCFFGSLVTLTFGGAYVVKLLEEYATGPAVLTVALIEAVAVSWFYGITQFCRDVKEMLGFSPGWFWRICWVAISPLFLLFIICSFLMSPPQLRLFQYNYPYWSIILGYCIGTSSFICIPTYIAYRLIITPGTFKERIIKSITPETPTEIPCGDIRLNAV
experimental endpoint: pIC50
API: returns pIC50 as number; meaning -log10 of concentration in mol/L.

For record COc1cc2c(cc1OC)[C@H]1C[C@@H](O)[C@@H](CC(C)C)CN1CC2 (single isomer, unassigned) [Isomer C, 3,11b-cis-dihydrotetrabenazine] the listed pIC50 is 5.56

For record COc1cc2c(cc1OC)[C@H]1C[C@H](O)[C@@H](CC(C)C)CN1CC2 (single isomer, unassigned) [Isomer B, 3,11b-cis-dihydrotetrabenazine] the listed pIC50 is 6.46

---

# Tested on: Male Sprague-Dawley rats
# assay explanation: Spontaneous locomotor activity in rats (sedative properties)
# Type: in vivo, rat
# settings: 1 mg/kg i.p.; 3 hours after administration
experimental endpoint: Inactivity Duration (s)
Kindly provide the numeric value in s only, without the unit symbol.

For record COc1cc2c(cc1OC)[C@H]1C[C@@H](O)[C@@H](CC(C)C)CN1CC2 (single isomer, unassigned) [Isomer C, 3,11b-cis-dihydrotetrabenazine] the listed Inactivity Duration is 510.2

For record O=C(CCCN1CCC(O)(c2ccc(Cl)cc2)CC1)c1ccc(F)cc1 [Haloperidol, reference compound] the listed Inactivity Duration is 723.6

For record COc1cc2c(cc1OC)[C@H]1C[C@H](O)[C@@H](CC(C)C)CN1CC2 (single isomer, unassigned) [Isomer B, 3,11b-cis-dihydrotetrabenazine] the listed Inactivity Duration is 525.8

For record COc1cc2c(cc1OC)C1CC(=O)C(CC(C)C)CN1CC2 (racemic) [Tetrabenazine] the listed Inactivity Duration is 556.9

---

# System: Male Sprague-Dawley rats
# assay explanation: Spontaneous locomotor activity in rats (sedative properties)
# Format: in vivo, rat
# settings: 1 mg/kg i.p.; 3 hours after administration
experimental endpoint: Large movements Occurrence

COc1cc2c(cc1OC)[C@H]1C[C@H](O)[C@@H](CC(C)C)CN1CC2 (single isomer, unassigned) [Isomer B, 3,11b-cis-dihydrotetrabenazine] on Male Sprague-Dawley rats gives Large movements Occurrence = 125 ± 18

COc1cc2c(cc1OC)C1CC(=O)C(CC(C)C)CN1CC2 (racemic) [Tetrabenazine] on Male Sprague-Dawley rats gives Large movements Occurrence = 90 ± 16

O=C(CCCN1CCC(O)(c2ccc(Cl)cc2)CC1)c1ccc(F)cc1 [Haloperidol, reference compound] on Male Sprague-Dawley rats gives Large movements Occurrence = 9 ± 8

COc1cc2c(cc1OC)[C@H]1C[C@@H](O)[C@@H](CC(C)C)CN1CC2 (single isomer, unassigned) [Isomer C, 3,11b-cis-dihydrotetrabenazine] on Male Sprague-Dawley rats gives Large movements Occurrence = 128 ± 24

---

# study target: Dopamine D1 Receptor (Homo sapiens, UniProt P21728)
# Construct: expressed in transfected cells; host or cells: CHO cells
# Sequence (P21728 whole entry): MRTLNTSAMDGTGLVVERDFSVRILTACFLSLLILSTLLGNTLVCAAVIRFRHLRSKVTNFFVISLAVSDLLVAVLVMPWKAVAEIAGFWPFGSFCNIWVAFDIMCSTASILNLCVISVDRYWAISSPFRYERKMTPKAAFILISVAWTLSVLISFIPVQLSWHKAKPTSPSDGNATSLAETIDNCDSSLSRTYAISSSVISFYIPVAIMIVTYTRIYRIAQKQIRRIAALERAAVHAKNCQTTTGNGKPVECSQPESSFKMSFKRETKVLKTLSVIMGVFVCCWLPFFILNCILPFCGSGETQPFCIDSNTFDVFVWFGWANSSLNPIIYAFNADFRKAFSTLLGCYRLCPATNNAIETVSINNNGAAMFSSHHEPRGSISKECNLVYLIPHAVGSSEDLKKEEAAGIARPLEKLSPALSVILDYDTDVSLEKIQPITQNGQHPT
# assay explanation: Dopamine D1 receptor radioligand binding
# settings: 10 μM; 1.4 nM [3H] SCH-23390
experimental endpoint: Percentage Inhibition of Specific Binding, D1 Receptor (%)
Kindly provide the numeric value in % only, without the unit symbol.

For record COc1cc2c(cc1OC)[C@H]1C[C@@H](O)[C@@H](CC(C)C)CN1CC2 (single isomer, unassigned) [Isomer C, 3,11b-cis-dihydrotetrabenazine] the listed Percentage Inhibition of Specific Binding, D1 Receptor is 6

For record COc1cc2c(cc1OC)[C@H]1C[C@H](O)[C@@H](CC(C)C)CN1CC2 (single isomer, unassigned) [Isomer A, 3,11b-cis-dihydrotetrabenazine] the listed Percentage Inhibition of Specific Binding, D1 Receptor is 78

For record COc1cc2c(cc1OC)[C@H]1C[C@H](O)[C@@H](CC(C)C)CN1CC2 (single isomer, unassigned) [Isomer B, 3,11b-cis-dihydrotetrabenazine] the listed Percentage Inhibition of Specific Binding, D1 Receptor is 1

For record COc1cc2c(cc1OC)[C@H]1C[C@@H](O)[C@@H](CC(C)C)CN1CC2 (single isomer, unassigned) [Isomer D, 3,11b-cis-dihydrotetrabenazine] the listed Percentage Inhibition of Specific Binding, D1 Receptor is 38

---

Answer each item with its documented Percentage Inhibition of Specific Binding, D2L Receptor.
# study target: Dopamine D2L Receptor (Homo sapiens, UniProt P14416)
# Construct: expressed in transfected cells; host or cells: CHO cells
# Sequence (P14416 whole entry): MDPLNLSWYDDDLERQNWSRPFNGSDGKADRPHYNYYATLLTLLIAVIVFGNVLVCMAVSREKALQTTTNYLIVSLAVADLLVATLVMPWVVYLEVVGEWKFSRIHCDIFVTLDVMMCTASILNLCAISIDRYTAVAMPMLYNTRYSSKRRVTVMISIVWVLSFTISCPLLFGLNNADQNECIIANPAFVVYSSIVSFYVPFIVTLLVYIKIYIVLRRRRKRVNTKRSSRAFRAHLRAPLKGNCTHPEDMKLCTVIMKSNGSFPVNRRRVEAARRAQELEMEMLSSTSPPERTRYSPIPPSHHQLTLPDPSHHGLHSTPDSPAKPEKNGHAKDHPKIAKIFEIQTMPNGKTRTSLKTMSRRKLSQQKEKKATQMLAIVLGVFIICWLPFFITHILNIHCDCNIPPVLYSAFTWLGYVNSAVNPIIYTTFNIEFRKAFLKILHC
# assay explanation: Dopamine D2L receptor radioligand binding
# settings: 10 μM; 0.16 nM [3H] Spiperone
Kindly provide the numeric value in % only, without the unit symbol.

For record COc1cc2c(cc1OC)[C@H]1C[C@H](O)[C@@H](CC(C)C)CN1CC2 (single isomer, unassigned) [Isomer A, 3,11b-cis-dihydrotetrabenazine] the listed Percentage Inhibition of Specific Binding, D2L Receptor is 87

For record COc1cc2c(cc1OC)[C@H]1C[C@@H](O)[C@@H](CC(C)C)CN1CC2 (single isomer, unassigned) [Isomer C, 3,11b-cis-dihydrotetrabenazine] the listed Percentage Inhibition of Specific Binding, D2L Receptor is −14

For record COc1cc2c(cc1OC)[C@H]1C[C@H](O)[C@@H](CC(C)C)CN1CC2 (single isomer, unassigned) [Isomer B, 3,11b-cis-dihydrotetrabenazine] the listed Percentage Inhibition of Specific Binding, D2L Receptor is 16

For record COc1cc2c(cc1OC)[C@H]1C[C@@H](O)[C@@H](CC(C)C)CN1CC2 (single isomer, unassigned) [Isomer D, 3,11b-cis-dihydrotetrabenazine] the listed Percentage Inhibition of Specific Binding, D2L Receptor is 58

---

# study target: Dopamine D3 Receptor (Homo sapiens, UniProt P35462)
# Construct: expressed in transfected cells; host or cells: CHO cells
# Sequence (P35462 whole entry): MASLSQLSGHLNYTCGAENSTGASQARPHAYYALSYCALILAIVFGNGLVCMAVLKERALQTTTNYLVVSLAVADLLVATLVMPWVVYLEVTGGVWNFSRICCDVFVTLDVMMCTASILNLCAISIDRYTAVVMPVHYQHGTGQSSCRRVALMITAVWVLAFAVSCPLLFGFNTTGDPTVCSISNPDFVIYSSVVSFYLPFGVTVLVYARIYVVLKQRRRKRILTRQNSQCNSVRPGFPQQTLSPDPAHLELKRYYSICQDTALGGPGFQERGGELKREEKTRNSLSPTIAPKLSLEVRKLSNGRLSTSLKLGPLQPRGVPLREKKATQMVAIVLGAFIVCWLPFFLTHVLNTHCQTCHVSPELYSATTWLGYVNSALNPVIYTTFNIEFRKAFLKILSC
# assay explanation: Dopamine D3 receptor radioligand binding
# settings: 10 μM; 0.7 nM [3H] Spiperone
Answer each item with its documented Percentage Inhibition of Specific Binding, D3 Receptor.
Kindly provide the numeric value in % only, without the unit symbol.

For record COc1cc2c(cc1OC)[C@H]1C[C@@H](O)[C@@H](CC(C)C)CN1CC2 (single isomer, unassigned) [Isomer C, 3,11b-cis-dihydrotetrabenazine] the listed Percentage Inhibition of Specific Binding, D3 Receptor is 9

For record COc1cc2c(cc1OC)[C@H]1C[C@H](O)[C@@H](CC(C)C)CN1CC2 (single isomer, unassigned) [Isomer B, 3,11b-cis-dihydrotetrabenazine] the listed Percentage Inhibition of Specific Binding, D3 Receptor is 7

For record COc1cc2c(cc1OC)[C@H]1C[C@@H](O)[C@@H](CC(C)C)CN1CC2 (single isomer, unassigned) [Isomer D, 3,11b-cis-dihydrotetrabenazine] the listed Percentage Inhibition of Specific Binding, D3 Receptor is 63

For record COc1cc2c(cc1OC)[C@H]1C[C@H](O)[C@@H](CC(C)C)CN1CC2 (single isomer, unassigned) [Isomer A, 3,11b-cis-dihydrotetrabenazine] the listed Percentage Inhibition of Specific Binding, D3 Receptor is 69

---

# study target: Sigma σ1 Receptor (Homo sapiens)
# Construct: Source: Human jurkat cells; endogenous in cells; host or cells: Jurkat cells
# Sequence (Q99720 whole entry): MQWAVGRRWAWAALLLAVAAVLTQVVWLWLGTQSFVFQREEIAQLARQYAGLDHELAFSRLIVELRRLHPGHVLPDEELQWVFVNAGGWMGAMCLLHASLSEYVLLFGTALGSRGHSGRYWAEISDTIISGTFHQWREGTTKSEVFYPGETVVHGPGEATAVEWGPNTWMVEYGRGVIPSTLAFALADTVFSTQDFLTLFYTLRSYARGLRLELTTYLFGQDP
# assay explanation: Sigma σ1 receptor radioligand binding
# settings: 10 μM; 8 nM [3H] Haloperidol
Answer each item with its documented Percentage Inhibition of Specific Binding, σ1 Receptor.
Kindly provide the numeric value in % only, without the unit symbol.

For record COc1cc2c(cc1OC)[C@H]1C[C@H](O)[C@@H](CC(C)C)CN1CC2 (single isomer, unassigned) [Isomer B, 3,11b-cis-dihydrotetrabenazine] the listed Percentage Inhibition of Specific Binding, σ1 Receptor is 82

For record COc1cc2c(cc1OC)[C@H]1C[C@H](O)[C@@H](CC(C)C)CN1CC2 (single isomer, unassigned) [Isomer A, 3,11b-cis-dihydrotetrabenazine] the listed Percentage Inhibition of Specific Binding, σ1 Receptor is 48

For record COc1cc2c(cc1OC)[C@H]1C[C@@H](O)[C@@H](CC(C)C)CN1CC2 (single isomer, unassigned) [Isomer C, 3,11b-cis-dihydrotetrabenazine] the listed Percentage Inhibition of Specific Binding, σ1 Receptor is 59

For record COc1cc2c(cc1OC)[C@H]1C[C@@H](O)[C@@H](CC(C)C)CN1CC2 (single isomer, unassigned) [Isomer D, 3,11b-cis-dihydrotetrabenazine] the listed Percentage Inhibition of Specific Binding, σ1 Receptor is 82
